// data source = the supplement of paper PMC12455559

- procedure.text: purified protein yield per well (BCA); higher = higher soluble expression
property: purified protein yield per well

{"sequence.code": "FSAPGPSAPCSNCTRGPAPTVASLKASSGPFSTAKFSVSGYLKGFGNSTVYYPTNTSGKMGAIAVIPGYLSYESSIEWWGPRLASHGFVVMTMNTNSIYDQPDSRATQLSKALDYLISQSGSSSSPIYGKVDSSRLGAIGWSMGGGGSLKLSTQRSINAIIPQAPWYLGSNTFNTIKTPALILACSADTVAPVYQHASPFYNRIPTSTPKAFLEIYGGSHFCANSGYPNEDLLGMYGIAWMKRFIDFDSRYSQFLCGPNHESDYAISEYRQNCPY [ESM017]", "property": "purified protein yield per well", "result.value": "53.8 µg"}
{"sequence.code": "AANPYERGPAPTAASIAATTGPFAVASVSVPRGNGFGGGVIYYPTSTSQGTFGGVAISPGLNGTWAGIAWLGPRLASQGFVIFGIETNNLNDSPASRGTQLLAALDFLTRSSSVRTRVDASRLAVAGHSMGGGGALSAALQRPSLQAAIGNAPHLPSGSLATDRVPTLIYAMQNDTLVTPSRLTSLYNSMPATTERAYIEVAGAGHNYIGQPSTTLARTMIPWLKIFVDNDARYSQFLCPLSNQSGISQYRNSCPLISTTTLSTGVDSTSGLAVR [ESM157]", "property": "purified protein yield per well", "result.value": "313 µg"}
{"sequence.code": "QTSAPTSASLNASSGPLSVSTASVTLPRGFGGGTIYYPTVAAKYGVIAISPGFTATQSSIAWLGRRIATHGFVVITINTNTTLDQPDSRATQLVAALNHVLNSSGTAVRSRIDPARLAVAGHSMGGGGSLIAARDNPTLKASYPMTPWNISSNFSTVRVPTMIIGADGDTVAPVGTHARPFYASLPSSTFKAYGELNGATHFAPNTTSTPIGRYAVAWMKRFVDGDTRYSPFLCGAQHTSYATGLVFDRYNQNCPY [ESM054]", "property": "purified protein yield per well", "result.value": "< 25 µg"}
{"sequence.code": "CASVASPPAATLAALSGNGSYEVMTYTDFPDVPEFGDATIYYPQDAPAPVGGVAIAPGFTEVQSHISWWGPRLASHGFAVLVLDTNDRRDRPDLRADALIAAVTLLRAENSRSGSPLNSRIDVGKMAIMGHSMGGGGVLLAANEHSDQIQAAIPFTPWVPDVEFGNITVPTLVIAGSADRIANVTDHAWRHF [TEP113]", "property": "purified protein yield per well", "result.value": "< 25 µg"}
{"sequence.code": "ADNPYERGPDPSWSSIEALRGPYTVDDTSVSRWVSGFGGGTIYYPDTTRDGDFGAAVISPGYTGTQSSIDWLGPRLASQGFVVLTIDTNSVYDQPDSRADQLQAALDYLTGSSDVADRIDPDRLALMGHSMGGGGTLRAVDDDPSIKAAIPMTPWHIKKNWSSVSTPTLIFGAERDSIAPHETHAEPFYDSLSRSLPKAYLELNNASHFAPNSSNTEIASISIAWLKRFVDDDTRYEQFVCPGPSGYAIEKYESSCPF [TEP128]", "property": "purified protein yield per well", "result.value": "< 25 µg"}
{"sequence.code": "QTNPYARGPNPTASSLEASTGPFAYRSFTVSRPSGYGAGTVYYPTNAGGTVGAIAIVPGYTARQSSINWWGPRLASHGFVVITIDTNSTLDQPSSRSRQQMAALQQVASLNSTSSSPIYGKVDTSRMGVMGWSMGGGGSLISARDNPSLKAAAPQAPWNTSSSFSSMTVPTLIFACESDSIAPVNSHASPMYNSMRSNPRQYLEINNGSHSCANSGNSNQALIGKKGVAWMKRYMDNDTRYSTFACQNPNSTRVSDFRVANCS [ESM094]", "property": "purified protein yield per well", "result.value": "< 25 µg"}
{"sequence.code": "ADNPYQRGPDPTVASVAATRGPFATAQLTVPAGNGFGGGYLYYPTDTSQGTWGAVAIVPGYSALFANEEAWMGPWLASFGFVVIGVETITRTDGADARATELLAALDYLTQRSAVRDRIDATRLAVMGHSAGGAGTILAAEQRPSLKAGVGLAPGTPGSLSLATDKVPMMVVGGQTDPTVTPAYLDNLYAGMPATTPSDFVQIAGADHLFFTRANNTEMKVLIPWLKIFLDNDTRYTQFLCPSLADPSGISLYRSKCPYLPPGTPSPSPSVSPSNPAAGCTASYRTVGSWPGGFQGEVTVTAGGAALNGWTVGWTLGSGQTITQVWNGTLTTSGSAVTVRNASYSGSVPAGGSITFGFLAAGTPSVPALTCAG [ESM028]", "property": "purified protein yield per well", "result.value": "< 25 µg"}
{"sequence.code": "APANPYERGPDPTEASVTAEKGPFTIERIDVPTGSGTGFNRGTIYAPTDTSQGTFGAIAVSPGFVSPQAWIDWYGPRLASQGFVVMTLETLNLMDVPDSRANQLLAALDYLTGKSTVKNRIDPARLAVMGHSMGGGATLRAAAERPALQAAIPLAPWHTDRDWQGVTVPTMIMGADNDFIAGVGAHAEPFYRNLTSAPEKAYLELRNAGHMSFNTPNTTIAKYGISWMKRFVDDDTRYDRFLCPAPRPGAAINEYRDTCPNG [TEP186]", "property": "purified protein yield per well", "result.value": "< 25 µg"}
{"sequence.code": "DEIGQAPTAANITGDGSFSTSSSAIFGQSGFGGGTAYYPNTAGKYPVVAFAPGFLSDWNALNWLGPRVASWGFVVVGVNTNTPFDFPDARGDQLLAALNWAVNSAPAAVRDKADGSRRGVSGWSMGGGGTLEALAKDTTGTVKAGVPLAPWHTNKTWSKVTEPVFIIGGQNDSVAAPASHAIPFYNSLGGPKSYLERAGADHFFPTKSNGTVSRAVVSFFKRHVSADTRFTPFLCGFSGLDVSNFRSNSC [ESM030]", "property": "purified protein yield per well", "result.value": "< 25 µg"}
{"sequence.code": "QIGPAPTSASLNATAGPLAVSTSTVTVATGFGGGTIYYPSTAGQYGVIAISPGFTATQSSVAWLGRRLATHGFVVITIDTNTTLDQPASRATQLIAALNYVVNSASSTVRSRVDPNRRAVAGHSMGGGGALIAAENNPSLKASLPLTPWNLSSSFTQVRVPTLIVGSDGDAVAPVAVHARPFYASLPGTTYKAYAELNLATHFTPNSTNTPIGRYGVTWMKRFVDADTRYSSFLCGADHQAYATALVFDRYSQNCPY [ESM116]", "property": "purified protein yield per well", "result.value": "< 25 µg"}

###

- procedure.text: PET hydrolysis, aromatic products released after 48 h (umol product/mg enzyme); higher = more PET depolymerization activity
- setup.conditions: substrate: cryPow; 60 °C; pH 7.5
Each entry below carries its reported PET hydrolysis.

{"sequence.code": "ADNPYQRGPDPTRTSVTAVNGPFANTSVSVPTGHGFNGGRIYYPTDTSQGTFGAIAISPGYTALFSAELAWMGPWLASHGFVVIGIETNSRNDFDTARGTQLLAALDYLTQQSPVRDRVDPSRLAVSGHSMGGGGALSAAMRRASLKAVVGITPYSPSSNLANDRVPTMIISGQADTVVTPSYALGLYNSIPATTESVYLEVAGGDHGFMVGRSNPVLVRTMLPFLKMFIDNDTRYSQFLCPLLDNSGVVTYRSTCPLLPTDPTTPPTGTPTPTPTTPAPTTPPPTTPPGSASEIRGTQSNRCIDVPNASRNNGTRVQLYDCNRQTNQAWTYTANKQLQVYGNMC [ESM106]", "PET hydrolysis": "< 3"}
{"sequence.code": "VQIGPAPTKASLEASRGPFTVATTRLSANGHGGGTIYYPTNAGAKVGVIAIVPGYLSYQSSIEWWGPRLASHGFAVVTIDTLTIYDQPSSRSSQQLRALDQVVALGSKSTSPLYNKVDGSRTGVMGWSMGGGGSLISAQNRPSIKAAAPQAPWNTTSNFSSLTVPTLIFACQADVVAPILSHAVPFYNSMSRNPKQYLERTAGDHFCFNNANPTVGLKGVAWMKRFIDGDTRYTSFACSNPNALGFSSFRTERCS [ESM053]", "PET hydrolysis": 10}
{"sequence.code": "ADNPYQRGPDPTLASVSAQRGTFATAQVAVPAGDGFGGGMIYYPTDTSQGTFGAVAIVPGYTARFSVEEAWMGHWLASFGFVVIGVETNSTNDFDTARGTQLLAALDYLTQRSSVRDRVDASRQSVVGHSMGGGGALYAAGQRASLKAAVGLAPYKPSGNPTNVRVPTMIISGQNDTVVTPSYATGLYNTLPATTESAYMEFTGADHLFPTRANTLEMRILIPWLKIFVDSDNRYSQFLCPLQDSTGIRGYRSTCPFLPNPTTSPSTTAPTTPPTTPPTTPPTGACSATYRTVNSWPGGFQGEVTVSAGSTPVDGWAVRWTLASGQAVTQVWNGALSVSGSAVTVRNTTYNGSLGANASTTFGFLASGSPTPVSLTCTSP [ESM033]", "PET hydrolysis": "< 3"}
{"sequence.code": "ATNPYQRGPAPTAESISAERGSFAVADSAVSADSVSGFGGGTVYYPTDTSAGKFGAVAIAPGFTANEWSLAWLGPRLASHGFVVFIIDTITTGDQPAQRGDELRAALSYLTTSSPVRDRVDPARLGVMGHSMGGGGALQAAEDDPSIRAVIPMTPYDLDSPSPKVTAPTLIIGAQDDTIAPVAYHARPFYESLTSARAKEYIELRNQSHFAPNYPNATIASASIAWLKRYIDDDQRYQPFACPAQVGSWLISDFRSAC [DP034]", "PET hydrolysis": "< 3"}
{"sequence.code": "AGNPYQRGPDPTLASVAASRGTFATAQVSVPPGNGFNGGTIYYPTDTTQGTWGAVAIVPGYTALFANEEAWMGPWLASFGFVVIGIETNSRNDFDTARGTQLLAALDYLTQKSPVRDRVDSARLGVIGHSMGGGGVVYATEHRPSLKAAVALAPFSPSQDMSTDHVPTMVMAGQNDTVVTPSYLDGLYATMPASAQSDFVQLAGADHVAYTHPNTTEMRLLIPWLKIFLDDDTRYTQFLCPLKDSTGVSMYRAKCPYVPPGGPTTSPTPTTTPTPPDGGACSATYRTVNSWSGGYQGEITVTAGGAAIDGWTVRWSLGGGQTVTQVWNGTLSTSGSTASVANASYNGSLQASASTTFGFLANGTPSTPALTCSSP [ESM084]", "PET hydrolysis": "< 3"}
